Molecular target: T1, murine IL-11 (mouse, UniProt P47873 22-199)
T1 sequence: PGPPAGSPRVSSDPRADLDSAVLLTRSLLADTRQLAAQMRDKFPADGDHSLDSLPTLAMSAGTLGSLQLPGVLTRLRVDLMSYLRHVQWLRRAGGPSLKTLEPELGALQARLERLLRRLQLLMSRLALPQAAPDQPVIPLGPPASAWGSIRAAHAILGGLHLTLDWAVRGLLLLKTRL
Assay: cell-based or functional assay
measurement_type: RGA IC50 (nM)
Write down the numeric answer in nM and omit the unit.

Answered cases to consult:
binder: TPP-29389 (antibody, human IgG1, V domains shown) VH: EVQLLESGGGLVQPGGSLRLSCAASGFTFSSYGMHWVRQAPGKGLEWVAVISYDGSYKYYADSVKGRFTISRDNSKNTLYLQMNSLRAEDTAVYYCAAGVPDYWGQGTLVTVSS VL: QSVLTQPPSASGTPGQRVTISCSGSSSNIGSYYDVHWYQQLPGTAPKLLIYSNEERPSGVPDRFSGSKSGTSASLAISGLRSEDEADYYCAAWDPSLYGPVFGGGTKLTVL
units: nM
measured: 0.29

binder: TPP-29393 (antibody, human IgG1, V domains shown) VH: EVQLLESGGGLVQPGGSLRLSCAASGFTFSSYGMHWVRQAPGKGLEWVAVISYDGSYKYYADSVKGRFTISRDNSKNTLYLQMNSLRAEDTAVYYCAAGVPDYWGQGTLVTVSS VL: QSVLTQPPSASGTPGQRVTISCSGSSSNIGSDLDVHWYQQLPGTAPKLLIYSNEERPSGVPDRFSGSKSGTSASLAISGLRSEDEADYYCAAWDDSLYGPVFGGGTKLTVL
units: nM
measured: 0.24

# input for lookup
(Q) Recall and state the measured RGA IC50 for TPP-29402 (antibody, human IgG1, V domains shown) VH: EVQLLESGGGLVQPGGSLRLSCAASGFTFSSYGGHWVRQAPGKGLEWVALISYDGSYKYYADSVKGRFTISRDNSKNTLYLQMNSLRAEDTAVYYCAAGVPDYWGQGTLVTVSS VL: QSVLTQPPSASGTPGQRVTISCSGSSSNIGSGLDVHWYQQLPGTAPKLLIYSNEERPSGVPDRFSGSKSGTSASLAISGLRSEDEADYYCAAWDSSLYGPVFGGGTKLTVL .
(A) 0.19
